The measurements presented in this section are drawn from patent US20240002497A1.

biological target: T1, muNav1.7α (murine, UniProt Q62205 1-1984); assay: binding FACS, HEK JmpIn
T1 construct: HEK JmpIn cells; also called murine Nav1.7α
EC50 strictly under 6 nM means True; at 6 nM or over means False.

Binder	Answer label
F010301934 (VHH, also called F0103464B09(L11V, M77T, K83R, V89L)) VHH: EVQLVESGGGVVQPGGSLRLSCATTSRAFIRDVFTGWYRRVPGKERELVARIYNGGNTNYADFAKGRFSISRDNAKKTVTLRMSNLRPEDTGLYYCLFSGTINTGREYRSGDYWGQGTLVTVSS	True
F010301872 (VHH, also called F0103464B09(L11V, T25S, S68T, T79Y, R81Q, S82aN, N82bS, K83R, G88A, V89L)) VHH: EVQLVESGGGVVQPGGSLRLSCATSSRAFIRDVFTGWYRRVPGKERELVARIYNGGNTNYADFAKGRFTISRDNAKKMVYLQMNSLRPEDTALYYCLFSGTINTGREYRSGDYWGQGTLVTVSS	False
F010301932 (VHH, also called F0103464B09(L11V, K83R, V89L)) VHH: EVQLVESGGGVVQPGGSLRLSCATTSRAFIRDVFTGWYRRVPGKERELVARIYNGGNTNYADFAKGRFSISRDNAKKMVTLRMSNLRPEDTGLYYCLFSGTINTGREYRSGDYWGQGTLVTVSS	True
F0103464B09 (parental)-FLAG-HIS6 (VHH, also called F010346B09) VHH: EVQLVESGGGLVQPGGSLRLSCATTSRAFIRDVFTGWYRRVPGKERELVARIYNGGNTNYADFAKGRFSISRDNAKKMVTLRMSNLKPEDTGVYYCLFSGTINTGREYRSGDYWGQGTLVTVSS	False
F010301935 (VHH, also called F0103464B09(L11V, T79Y, K83R, V89L)) VHH: EVQLVESGGGVVQPGGSLRLSCATTSRAFIRDVFTGWYRRVPGKERELVARIYNGGNTNYADFAKGRFSISRDNAKKMVYLRMSNLRPEDTGLYYCLFSGTINTGREYRSGDYWGQGTLVTVSS	True
F010301936 (VHH, also called F0103464B09(L11V, R81Q, K83R, V89L)) VHH: EVQLVESGGGVVQPGGSLRLSCATTSRAFIRDVFTGWYRRVPGKERELVARIYNGGNTNYADFAKGRFSISRDNAKKMVTLQMSNLRPEDTGLYYCLFSGTINTGREYRSGDYWGQGTLVTVSS	True
F010301893 (VHH, also called F0103464B09(L11V, E44Q, S68T, T79Y, R81Q, S82aN, N82bS, K83R, G88A, V89L)) VHH: EVQLVESGGGVVQPGGSLRLSCATTSRAFIRDVFTGWYRRVPGKQRELVARIYNGGNTNYADFAKGRFTISRDNAKKMVYLQMNSLRPEDTALYYCLFSGTINTGREYRSGDYWGQGTLVTVSS	True
F010301876 (VHH, also called F0103464B09(L11V, A63V, S68T, T79Y, R81Q, S82aN, N82bS, K83R, G88A, V89L)) VHH: EVQLVESGGGVVQPGGSLRLSCATTSRAFIRDVFTGWYRRVPGKERELVARIYNGGNTNYADFVKGRFTISRDNAKKMVYLQMNSLRPEDTALYYCLFSGTINTGREYRSGDYWGQGTLVTVSS	False
F010301938 (VHH, also called F0103464B09(L11V, N82bS, K83R, V89L)) VHH: EVQLVESGGGVVQPGGSLRLSCATTSRAFIRDVFTGWYRRVPGKERELVARIYNGGNTNYADFAKGRFSISRDNAKKMVTLRMSSLRPEDTGLYYCLFSGTINTGREYRSGDYWGQGTLVTVSS	True
F010302355 (VHH) VHH: EVQLVESGGGVVQPGGSLRLSCAASHRAFIRDVFTGWYRRAPGKQRELVARIYEGGNTQYADSVKGRFTISRDNAKKTVYLQMNSLRPEDTALYYCLFSGTISTGREYRSGDYWGQGTLVTVSS	False
F010302363 (VHH) VHH: EVQLVESGGGVVQPGGSLRLSCAASHRAFIRDVFTGWYRQAPGKQRELVARIYEGGNTQYADSVKGRFTISRDNAKKTVYLQMNSLRPEDTALYYCLFSGTISTGREYRSGDYWGQGTLVTVSS	False
F010301868 (VHH, also called F0103464B09(L11V, S68T, T79Y, R81Q, S82aN, N82bS, K83R, G88A, V89L)) VHH: EVQLVESGGGVVQPGGSLRLSCATTSRAFIRDVFTGWYRRVPGKERELVARIYNGGNTNYADFAKGRFTISRDNAKKMVYLQMNSLRPEDTALYYCLFSGTINTGREYRSGDYWGQGTLVTVSS	False
F010301937 (VHH, also called F0103464B09(L11V, S82aN, K83R, V89L)) VHH: EVQLVESGGGVVQPGGSLRLSCATTSRAFIRDVFTGWYRRVPGKERELVARIYNGGNTNYADFAKGRFSISRDNAKKMVTLRMNNLRPEDTGLYYCLFSGTINTGREYRSGDYWGQGTLVTVSS	True
F010301933 (VHH, also called F0103464B09(L11V, S68T, K83R, V89L)) VHH: EVQLVESGGGVVQPGGSLRLSCATTSRAFIRDVFTGWYRRVPGKERELVARIYNGGNTNYADFAKGRFTISRDNAKKMVTLRMSNLRPEDTGLYYCLFSGTINTGREYRSGDYWGQGTLVTVSS	True
F010301877 (VHH, also called F0103464B09(L11V, S68T, K76N, T79Y, R81Q, S82aN, N82bS, K83R, G88A, V89L)) VHH: EVQLVESGGGVVQPGGSLRLSCATTSRAFIRDVFTGWYRRVPGKERELVARIYNGGNTNYADFAKGRFTISRDNAKNMVYLQMNSLRPEDTALYYCLFSGTINTGREYRSGDYWGQGTLVTVSS	False
